Tested on: U937 (lymphoma cancer)
EXPERIMENTAL PROTOCOL: cells
STATED CONDITIONS: U937; 50% cell destroying lethal concentration
PARAMETER MEASURED: LC50 (µg/mL)
Reply numerically in µg/mL, unit not repeated.

Need LC50 of CC(C)=CCc1c2c(c(O)c3c1OC14C(=CC5CC1C(C)(C)OC4(CC=C(C)C(=O)O)C5=O)C3=O)C=CC(C)(C)O2 (centres unmarked) [TSB-2, isomorellic acid] , thanks.
6.1

And then CC(C)=CCc1c2c(c(O)c3c1OC14C(=CC5CC1C(C)(C)OC4(CC=C(C)CO)C5=O)C3=O)C=CC(C)(C)O2 (centres unmarked) , what is it?
3.8

And then CC(C)=CCc1c2c(c(O)c3c1OC14C(=CC5CC1C(C)(C)OC4(CC=C(C)C(=O)O)C5=O)C3=O)C=CC(C)(C)O2 (centres unmarked) [TSB-7, morellic acid] , what is it?
4.8

And then CC(C)=CCCC1(C)C=Cc2c(O)c3c(c(CC=C(C)C)c2O1)OC12C(=CC4CC1C(C)(C)OC2(CC=C(C)C(=O)O)C4=O)C3=O (centres unmarked) , what is it?
3.1
